- testMethodNotes: Fluorescence titration of labeled ParM with ATP
- Format: binding
- conditionParameters: Table 2
propertyMeasured: Kd ratio ATP/ADP
The answer should be written as a number, with no unit following it.

query: Give the measured Kd ratio ATP/ADP for T175H: MDCC-ParM (His6/I27C/T175H/C287A) (conjugate, UniProt P11904 1-320, looked up, variant I27C T175H C287A, MDCC label; His6 tag) Plasmid segregation protein …: MLVFIDDGSTNIKLQWQESDGTIKQHCSPNSFKREWAVSFGDKKVFNYTLNGEQYSFDPISPDAVVTTNIAWQYSDVNVVAVHHALLTSGLPVSEVDIVCTLPLTEYYDRNNQPNTENIERKKANFRKKITLNGGDTFTIKDVKVMPESIPAGYEVLQELDELDSLLIIDLGGTHLDISQVMGKLSGISKIYGDSSLGVSLVTSAVKDALSLARTKGSSYLADDIIIHRKDNNYLKQRINDENKISIVTEAMNEALRKLEQRVLNTLNEFSGYTHVMVIGGGAELIADAVKKHTQIRDERFFKTNNSQYDLVNGMYLIGN
result: 0.4
